System: WPMY1-GM130-SQSTM1
Measurement protocol: phenotypically active (imaging signature differs from DMSO and reproducible) at any of 0.3-9 uM (binary (1 = active, 0 = inactive)); higher = active
Study conditions: treatment time: 24 h
Counter-ions that a name gives are not always drawn.
Labels: true (1) for active, false (0) for inactive

- Compound: "CC(C)(C)NC[C@H](O)COc1nsnc1N1CCOCC1 [timolol]"
  Class: "false (0)"
- Compound: "O=[N+]([O-])c1c(Nc2cc(F)cc(Cl)c2)ccc2nonc12"
  Class: "false (0)"
- Compound: "CC(C)(C)n1nc(-c2ccc(Cl)cc2)c2c(N)ncnc21"
  Class: "false (0)"
- Compound: "CCC(=O)N1CCN(c2ccc(-n3c(=O)ccc4cnc5ccc(-c6cnc7ccccc7c6)cc5c43)cc2C(F)(F)F)CC1 [Torin 1]"
  Class: "true (1)"
- Compound: "Cc1cnc(NC(=O)Nc2cc(Br)c(C)cc2OC[C@@H]2CNCCO2)cn1"
  Class: "true (1)"
- Compound: "Nc1nccc(-c2ccc3noc(-c4ccc(Cl)cc4)c3c2)n1 [PIM-1 Inhibitor 2]"
  Class: "true (1)"
- Compound: "CN1C(CSCC(F)(F)F)Nc2cc(Cl)c(S(N)(=O)=O)cc2S1(=O)=O (stereo not drawn) [polythiazide]"
  Class: "false (0)"
- Compound: "Cc1cccc(C)c1OCC(=O)N[C@@H](Cc1ccccc1)[C@@H](O)C[C@H](Cc1ccccc1)NC(=O)[C@H](C(C)C)N1CCCNC1=O [lopinavir]"
  Class: "false (0)"
- Compound: "CCCCOc1cc(C(=O)OCCN(CC)CC)ccc1N [oxybuprocaine]"
  Class: "false (0)"
- Compound: "COc1ccc(S(=O)(=O)ON=C2C=C(C)C(=O)C(C)=C2)cc1"
  Class: "false (0)"
- Compound: "CN1C(=O)CC(C)(c2ccccc2)C1=O (stereo not drawn) [methsuximide]"
  Class: "false (0)"
- Compound: "CCCCNNC(=O)c1ccc(Br)cc1"
  Class: "true (1)"
- Compound: "C#C[C@]1(O)CC[C@H]2[C@@H]3CCC4=CCCC[C@@H]4[C@H]3C(=C)C[C@@]21CC [desogestrel]"
  Class: "false (0)"
- Compound: "Nc1ccn([C@@H]2O[C@H](CO)[C@@H](O)[C@H]2O)c(=O)n1 [Cytidine]"
  Class: "false (0)"
- Compound: "O=C([C@H](Cc1cccc(C(F)(F)F)c1)NS(=O)(=O)c1cc(F)c2c(c1)CCNC2)N1CCCC1 [(S)-PFI 2 hydrochloride]"
  Class: "false (0)"
- Compound: "CNC(=O)c1cc(Oc2ccc(NC(=O)Nc3ccc(Cl)c(C(F)(F)F)c3)c(F)c2)ccn1 [regorafenib]"
  Class: "false (0)"
- Compound: "Cn1c(=O)c2nc[nH]c2n(C)c1=O [theophylline]"
  Class: "false (0)"
- Compound: "CCn1c(=O)c2cc(C(N)=O)c(N)nc2n(C2CC2)c1=O"
  Class: "false (0)"
- Compound: "Cc1ccc(S(=O)(=O)/C=C/C#N)cc1"
  Class: "true (1)"
- Compound: "CC(C)c1cc(-c2n[nH]c(=O)n2-c2ccc3c(ccn3C)c2)c(O)cc1O [ganetespib]"
  Class: "true (1)"
- Compound: "O=c1c(O)c(-c2ccc(O)c(O)c2)oc2cc(O)cc(O)c12 [Quercetin]"
  Class: "true (1)"
- Compound: "CCc1cccc(CC)c1NC(=O)N1Cc2[nH]nc(NC(=O)c3ccc(N4CCN(C)CC4)cc3)c2C1"
  Class: "true (1)"
- Compound: "CN(C)CCCC1(c2ccc(F)cc2)OCc2cc(C#N)ccc21 (stereo not drawn) [citalopram]"
  Class: "true (1)"
- Compound: "CN(C)C1CCN(C(=O)c2ccc(NC(=O)Nc3ccc(-c4nc(N5CCOCC5)nc(N5CCOCC5)n4)cc3)cc2)CC1"
  Class: "true (1)"
- Compound: "CCCc1nn(C)c2c(=O)[nH]c(-c3cc(S(=O)(=O)N4CCN(C)CC4)ccc3OCC)nc12 [Sildenafil citrate]"
  Class: "false (0)"
- Compound: "COc1c(O[C@@H]2O[C@H](CO)[C@@H](O)[C@H](O)[C@H]2O)cc2c(c1OC)-c1ccc(SC)c(=O)cc1[C@@H](NC(C)=O)CC2 [Thiocolchicoside]"
  Class: "false (0)"
- Compound: "O=S(=O)(c1cccc2c(O)nccc12)N1CCCNCC1 [HA 1100 hydrochloride]"
  Class: "true (1)"
- Compound: "C[N+](C)(C)CCOC(N)=O [Carbamoylcholine chloride]"
  Class: "false (0)"
- Compound: "CC(=O)O[C@H]1C(=O)[C@@]2(C)[C@H]([C@H](OC(=O)c3ccccc3)[C@]3(O)C[C@H](OC(=O)[C@H](O)[C@@H](NC(=O)c4ccccc4)c4ccccc4)C(C)=C1C3(C)C)[C@]1(OC(C)=O)CO[C@@H]1C[C@@H]2O [paclitaxel]"
  Class: "true (1)"
- Compound: "O=C1Nc2ccc(F)cc2C1=C1Nc2ccccc2C1=NO [5'-Fluoroindirubinoxime]"
  Class: "true (1)"
- Compound: "CC[C@@H](N)CNc1ccnc(-c2cc(-c3cnn(C)c3)ccc2O)n1"
  Class: "true (1)"
- Compound: "CNCC[C@@H](Oc1ccccc1C)c1ccccc1 [atomoxetine]"
  Class: "false (0)"
- Compound: "CN1CCN([C@H]2CC[C@H](n3cc(-c4ccc(Oc5ccccc5)cc4)c4c(N)ncnc43)CC2)CC1"
  Class: "true (1)"
